The origin of these recorded values is patent EP4806890A1.

As shown below, each of these compounds has a reported Hygroscopic weight increase (%) value.
Test: Hygroscopic behavior test by dynamic vapor sorption (DVS)
Format: physicochemical
Settings: Relative humidity 60.0 % at 25 °C
Where a name gives a salt, the structure may show the parent alone.

[
  {
    "COMPOUND": "Cc1c(NC(=O)c2cc(C3CC3)c(CN3CCCC[C@H]3C(=O)O)cn2)cccc1-c1cccc(NC(=O)c2cc(C3CC3)c(CN3CCCC[C@H]3C(=O)O)cn2)c1C [crystalline form A of disodium salt hydrate]",
    "Hygroscopic weight increase (%)": 12.43
  },
  {
    "COMPOUND": "Cc1c(NC(=O)c2cc(C3CC3)c(CN3CCCC[C@H]3C(=O)O)cn2)cccc1-c1cccc(NC(=O)c2cc(C3CC3)c(CN3CCCC[C@H]3C(=O)O)cn2)c1C [free-form crystalline form D]",
    "Hygroscopic weight increase (%)": 2.76
  },
  {
    "COMPOUND": "Cc1c(NC(=O)c2cc(C3CC3)c(CN3CCCC[C@H]3C(=O)O)cn2)cccc1-c1cccc(NC(=O)c2cc(C3CC3)c(CN3CCCC[C@H]3C(=O)O)cn2)c1C [free-form crystalline form C]",
    "Hygroscopic weight increase (%)": 1.50
  },
  {
    "COMPOUND": "Cc1c(NC(=O)c2cc(C3CC3)c(CN3CCCC[C@H]3C(=O)O)cn2)cccc1-c1cccc(NC(=O)c2cc(C3CC3)c(CN3CCCC[C@H]3C(=O)O)cn2)c1C [free-form crystalline form F]",
    "Hygroscopic weight increase (%)": 1.54
  }
]

---

Experiment: Stability determination (thermal stability and photostability, HPLC purity, appearance, XRPD)
Assay type: physicochemical
Conditions: Transparent light exposure, 9.2 days
Where a name gives a salt, the structure may show the parent alone.

[
  {
    "COMPOUND": "Cc1c(NC(=O)c2cc(C3CC3)c(CN3CCCC[C@H]3C(=O)O)cn2)cccc1-c1cccc(NC(=O)c2cc(C3CC3)c(CN3CCCC[C@H]3C(=O)O)cn2)c1C [crystalline form A of disodium salt hydrate]",
    "Purity (%)": 99.22
  },
  {
    "COMPOUND": "Cc1c(NC(=O)c2cc(C3CC3)c(CN3CCCC[C@H]3C(=O)O)cn2)cccc1-c1cccc(NC(=O)c2cc(C3CC3)c(CN3CCCC[C@H]3C(=O)O)cn2)c1C [free-form crystalline form C]",
    "Purity (%)": 97.91
  },
  {
    "COMPOUND": "Cc1c(NC(=O)c2cc(C3CC3)c(CN3CCCC[C@H]3C(=O)O)cn2)cccc1-c1cccc(NC(=O)c2cc(C3CC3)c(CN3CCCC[C@H]3C(=O)O)cn2)c1C [crystalline form B of disodium salt anhydrate]",
    "Purity (%)": 83.10
  },
  {
    "COMPOUND": "Cc1c(NC(=O)c2cc(C3CC3)c(CN3CCCC[C@H]3C(=O)O)cn2)cccc1-c1cccc(NC(=O)c2cc(C3CC3)c(CN3CCCC[C@H]3C(=O)O)cn2)c1C [free-form crystalline form F]",
    "Purity (%)": 99.43
  },
  {
    "COMPOUND": "Cc1c(NC(=O)c2cc(C3CC3)c(CN3CCCC[C@H]3C(=O)O)cn2)cccc1-c1cccc(NC(=O)c2cc(C3CC3)c(CN3CCCC[C@H]3C(=O)O)cn2)c1C [free-form crystalline form D]",
    "Purity (%)": 96.06
  }
]
